Below, each entry is listed alongside its reported RP-LC retention time.
# experiment-notes: gradient 5% acetonitrile 3 min, to 50% in 2 min, to 85% in 15 min, held 3 min, 100 µL/min
# condition-summary: column: Zorbax Extend-C18 2.1 x 50 mm; eluents: water / acetonitrile, 0.1% formic acid
value-type: RP-LC retention time (s)

>>> print(df.to_string())
                                   compound  endpoint_value
0         O=C(NCc1ccccc1)c1ccc(-c2cccs2)nc1             884
1    COc1cccc(CNC(=O)c2cn3cc(Cl)ccc3n2)c1OC             824
2  COc1ccc(OC)c(NC(=O)COc2cc(C(C)(C)C)nn2-c2nc(C)cc(C)n2)c1             881
3    CCNC(=O)c1nc(C(=O)NCc2cc(F)cc(F)c2)cs1             781
4   Cc1c(C(=O)NCc2ccccc2Br)cc(-c2ccccc2)n1C            1040
5  CC(C)NC(=O)c1cc2nc(N(C)C)n(-c3ccc(F)cc3)c2s1             627
6  COc1cc(C(=O)NCCNc2cc(-n3cccn3)ncn2)cc(OC)c1OC             631
7  COc1ccc(C(O)CN2CCN(c3ccccc3C)CC2)cc1 (stereo not given)             686
8  CCc1nn2c(CNC(=O)Cc3ccc(OC)cc3Cl)c(C)nc2s1             670
9  O=C(Cn1cccc1-c1nc(-c2ccc(F)cc2)no1)Nc1ccc2c(c1)OCCO2             944

Where do these numbers come from? They come from the METLIN SMRT retention time set (Domingo-Almenara et al. 2019).
